Experiment: in vitro
Conditions: human, hela cells, % viability
// reported viability at 28.5 h, 10 µM per item
Measurement kind: viability at 28.5 h, 10 µM

> print(dat)
                                   compound  reading
1  Cc1ccn(-c2ccc(N3CCOC4(CCCC4)C3)nn2)n1 [CBK305262]    87.9%
2  O=C1c2ccccc2C(=O)N1CCc1c[nH]c2ccc(O)cc12 [CBK086794]      76%
3         CCNC(=O)NCc1ccc(F)cc1 [CBK115581]    84.9%
4  COc1cc(/C=C2\SC(=N)NC2=O)ccc1OCC(=O)O [CBK262675]    88.4%
5  CCn1c(C)nc2cc(NC(=O)c3c4c(nn3C)CCCC4)ccc21 [CBK281831]    93.8%
